Hello, the source for this data is ChEMBL document CHEMBL5661979, in case you need it.

- targetDesc: Inhibitor of nuclear factor kappa-B kinase subunit alpha (Homo sapiens, UniProt O15111)
- Sequence (O15111 whole entry): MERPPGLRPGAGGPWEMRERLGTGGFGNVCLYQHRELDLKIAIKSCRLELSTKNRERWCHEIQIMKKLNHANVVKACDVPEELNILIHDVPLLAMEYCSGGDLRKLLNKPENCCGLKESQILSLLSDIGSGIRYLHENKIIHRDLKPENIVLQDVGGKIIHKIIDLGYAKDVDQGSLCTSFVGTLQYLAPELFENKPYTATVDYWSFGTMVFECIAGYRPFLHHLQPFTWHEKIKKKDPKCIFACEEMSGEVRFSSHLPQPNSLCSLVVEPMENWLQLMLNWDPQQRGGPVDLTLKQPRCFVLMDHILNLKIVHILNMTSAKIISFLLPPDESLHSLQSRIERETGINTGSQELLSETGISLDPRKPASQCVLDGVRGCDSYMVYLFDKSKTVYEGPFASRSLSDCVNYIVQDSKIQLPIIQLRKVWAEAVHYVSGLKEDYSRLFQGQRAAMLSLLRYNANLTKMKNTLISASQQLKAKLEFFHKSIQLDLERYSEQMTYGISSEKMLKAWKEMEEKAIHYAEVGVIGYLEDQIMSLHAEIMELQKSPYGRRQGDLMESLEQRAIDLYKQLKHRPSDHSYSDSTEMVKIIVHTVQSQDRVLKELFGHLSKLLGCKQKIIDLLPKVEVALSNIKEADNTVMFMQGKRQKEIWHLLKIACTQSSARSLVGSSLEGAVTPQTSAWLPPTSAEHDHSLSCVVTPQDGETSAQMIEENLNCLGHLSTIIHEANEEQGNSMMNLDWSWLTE
- experimentSummary: Inhibition of IKKA in human HeLa cells lysate pre incubated for 15 mins followed by ATP acyl phosphate probe addition and measured after 10 mins by LC-MS/MS analysis
- Type: subcellular
pIC50: −log10 of the molar value.
measuredProperty: pIC50

[[record]]
compoundsmiles = "CCOc1cc(N2CCC(O)CC2)ccc1Nc1ncc2c(n1)N(C)c1ccccc1C(=O)N2C"
reading = "< 4.30"


----------
- targetDesc: Serine/threonine-protein kinase TAO3 (Homo sapiens, UniProt Q9H2K8)
- Sequence (Q9H2K8 whole entry): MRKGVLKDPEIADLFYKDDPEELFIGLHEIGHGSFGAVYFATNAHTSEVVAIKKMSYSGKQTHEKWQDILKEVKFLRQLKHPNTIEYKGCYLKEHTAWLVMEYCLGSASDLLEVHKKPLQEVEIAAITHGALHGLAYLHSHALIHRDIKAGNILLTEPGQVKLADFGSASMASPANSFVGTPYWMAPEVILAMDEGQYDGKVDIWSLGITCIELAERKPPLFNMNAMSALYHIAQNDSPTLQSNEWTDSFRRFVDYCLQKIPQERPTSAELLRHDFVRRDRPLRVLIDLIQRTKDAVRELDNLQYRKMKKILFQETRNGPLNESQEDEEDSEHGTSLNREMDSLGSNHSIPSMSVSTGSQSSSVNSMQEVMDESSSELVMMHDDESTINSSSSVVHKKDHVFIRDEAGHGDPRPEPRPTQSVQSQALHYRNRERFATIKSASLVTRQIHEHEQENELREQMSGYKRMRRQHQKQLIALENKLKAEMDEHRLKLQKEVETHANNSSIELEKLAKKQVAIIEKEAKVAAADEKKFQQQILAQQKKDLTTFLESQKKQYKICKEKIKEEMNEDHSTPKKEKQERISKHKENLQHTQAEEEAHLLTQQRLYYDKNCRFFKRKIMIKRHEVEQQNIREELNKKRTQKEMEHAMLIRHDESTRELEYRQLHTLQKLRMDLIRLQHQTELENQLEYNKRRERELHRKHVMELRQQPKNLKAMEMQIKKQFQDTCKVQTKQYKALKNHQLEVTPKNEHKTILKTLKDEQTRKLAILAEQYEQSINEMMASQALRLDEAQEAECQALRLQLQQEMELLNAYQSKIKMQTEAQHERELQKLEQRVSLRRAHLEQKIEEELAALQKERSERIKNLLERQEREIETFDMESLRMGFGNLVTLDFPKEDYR
- experimentSummary: Inhibition of TAO3 in human HeLa cells lysate pre incubated for 15 mins followed by ATP acyl phosphate probe addition and measured after 10 mins by LC-MS/MS analysis
measuredProperty: IC50

[[record]]
compoundsmiles = "CCOc1cc(N2CCC(O)CC2)ccc1Nc1ncc2c(n1)N(C)c1ccccc1C(=O)N2C"
measuredproperty = "IC50"
reading = "> 50 µM"

